system: Pseudomonas aeruginosa PA14 dppA1-A5 penta mutant + pBBR5.DppA1 (PA14_58350); test: respiration area under curve with compound as sole nitrogen source, 24 h (OmniLog AUC (arbitrary units)); higher = more respiration / better utilisation as nitrogen source, active = 2000 or more
The threshold is inclusive: respiration area under curve of exactly 5000 counts as class 1; values below receive class 0.

- CC(C)[C@H](NC(=O)CN)C(=O)O (plate: PM6): class 0
- CC[C@H](C)[C@H](NC(=O)[C@@H](N)C(C)C)C(=O)O (plate: PM7): class 1
- NC(=O)C[C@H](NC(=O)[C@@H]1CCCN1)C(=O)O (plate: PM8): class 1
- N[C@@H](CCC(=O)O)C(=O)N[C@@H](CCC(=O)O)C(=O)O (plate: PM6): class 0
- N[C@@H](CO)C(=O)NCC(=O)O (plate: PM7): class 1

Please check the record CC(C)C[C@H](NC(=O)[C@@H](N)[C@@H](C)O)C(=O)O (plate: PM7) and state if its respiration area under curve is at or above 5000.
class 0

Please check the record C[C@@H](O)[C@H](N)C(=O)N1CCC[C@H]1C(=O)O (plate: PM7) and state if its respiration area under curve is at or above 5000.
class 1

Please check the record CC(C)[C@H](N)C(=O)NCC(=O)O (plate: PM7) and state if its respiration area under curve is at or above 5000.
class 1

Please check the record CC(C)[C@H](N)C(=O)N1CCC[C@H]1C(=O)O (plate: PM8) and state if its respiration area under curve is at or above 5000.
class 1

Please check the record C[C@H](NC(=O)CNC(=O)CN)C(=O)O (plate: PM8) and state if its respiration area under curve is at or above 5000.
class 0

----------
tested on: Pseudomonas aeruginosa PA14 dppA1-A5 penta mutant + pBBR5.DppA1 (PA14_58350); assay: respiration area under curve with compound as sole nitrogen source, 24 h (OmniLog AUC (arbitrary units)); higher = more respiration / better utilisation as nitrogen source, active = 2000 or more
recorded-metric: respiration area under curve
Output spec: single numeric token, no unit.

Please review the following examples before continuing.
* CSCCC(NC(=O)C(N)C(C)C)C(=O)O (stereo not given) (plate: PM8) | 2570
* C[C@@H](O)[C@H](N)C(=O)N[C@@H](CCCN=C(N)N)C(=O)O (plate: PM7) | 14200
* NCC(=O)N1CCC[C@H]1C(=O)O (plate: PM6) | 7310
* NCC(=O)N[C@H](CO)C(=O)O (plate: PM8) | 408

Query the reported respiration area under curve for Pseudomonas aeruginosa PA14 dppA1-A5 penta mutant + pBBR5.DppA1 (PA14_58350); item: CC(C)C(NC(=O)C1CCCN1)C(=O)O (stereo not given) (plate: PM8)
5180

Query the reported respiration area under curve for Pseudomonas aeruginosa PA14 dppA1-A5 penta mutant + pBBR5.DppA1 (PA14_58350); item: CC(C)C(N)C(=O)NC(CO)C(=O)O (stereo not given) (plate: PM8)
6900

Query the reported respiration area under curve for Pseudomonas aeruginosa PA14 dppA1-A5 penta mutant + pBBR5.DppA1 (PA14_58350); item: CC(C)[C@H](N)C(=O)N[C@H](C(=O)O)C(C)C (plate: PM7)
6680

Query the reported respiration area under curve for Pseudomonas aeruginosa PA14 dppA1-A5 penta mutant + pBBR5.DppA1 (PA14_58350); item: CSCC[C@H](N)C(=O)N[C@@H](Cc1ccccc1)C(=O)O (plate: PM7)
680

Query the reported respiration area under curve for Pseudomonas aeruginosa PA14 dppA1-A5 penta mutant + pBBR5.DppA1 (PA14_58350); item: N[C@@H](CO)C(=O)N1CCC[C@H]1C(=O)O (plate: PM7)
12700

Data credit: the supplement of paper PMC4206461
